# log(activity) listing for each entry below
- System name: Muscarinic acetylcholine receptor M1 (Homo sapiens)
- Test name: Positive allosteric modulation of human muscarinic M1 receptor expressed in CHO Flp-In cells assessed as functional cooperativity with acetylcholine measured as IP1 accumulation after 1 hr by HTRF method
- Assay type: cell-based
The answer should be a number; do not append a unit.

INPUT: Request the reported log(activity) associated with O=c1cc(-c2ccccc2OCc2ccc(-c3cnn(C4CCCCC4)c3)cc2)ccn1[C@H]1CCCC[C@@H]1O (racemic)
OUTPUT: 0.63

INPUT: For the molecule shown here, N#Cc1ccc(COc2ccccc2-c2ccn([C@H]3CCCC[C@@H]3O)c(=O)c2)cc1 (racemic) , give the reported log(activity).
OUTPUT: 0.49

INPUT: Please report the recorded log(activity) for Cn1cc(-c2ccc(COc3ccccc3-c3ccn([C@H]4CCCC[C@@H]4O)c(=O)c3)cc2)cn1 (racemic) .
OUTPUT: 2.3

INPUT: Reported log(activity), molecule O=c1cc(-c2ccccc2OCc2ccc(-c3cn[nH]c3)cc2)ccn1[C@H]1CCCC[C@@H]1O (racemic) : ____
OUTPUT: 0.68

INPUT: // lookup log(activity) for O=c1cc(-c2ccccc2OCc2ccccc2F)ccn1[C@H]1CCCC[C@@H]1O (racemic)
OUTPUT: 0.62

INPUT: Which log(activity) is listed for Cn1cc(-c2ccc(COc3ccccc3-c3ccn([C@H]4CCCC[C@@H]4O)c(=O)c3)cn2)cn1 (racemic) ?
OUTPUT: 2.15

INPUT: Suppose we examine the molecule O=c1cc(-c2ccccc2OCc2ccc(C(F)(F)F)cc2)ccn1[C@H]1CCCC[C@@H]1O (racemic) ; what log(activity) value has been reported?
OUTPUT: 0.4

INPUT: Give the measured log(activity) of O=c1cc(-c2ccccc2OCc2ccc(-c3ccccc3)cc2)ccn1[C@H]1CCCC[C@@H]1O (racemic) .
OUTPUT: 1.09

INPUT: Reported log(activity), molecule CCCn1cc(-c2ccc(COc3ccccc3-c3ccn([C@H]4CCCC[C@@H]4O)c(=O)c3)cc2)cn1 (racemic) : ____
OUTPUT: 1.78

---

- System name: Muscarinic acetylcholine receptor M1 (Homo sapiens)
- Test name: Displacement of [3H]NMS from human muscarinic M1 receptor expressed in CHO Flp-In cells after 1 hr by microbeta liquid scintillation counting-based radioligand binding assay
- Format: cell-based
Observed property: pKb
Format: numeric value only, no unit, no commentary.

In the examples that follow, each entry is paired with its recorded pKb.
compound="COc1ccc(COc2ccccc2-c2ccn([C@H]3CCCC[C@@H]3O)c(=O)c2)cc1 (racemic)" value_reported=4.28
compound="O=c1cc(-c2ccccc2OCc2ccc(-c3cnn(CCO)c3)cc2)ccn1[C@H]1CCCC[C@@H]1O (racemic)" value_reported=4.43
compound="O=c1cc(-c2ccccc2OCc2cccc(C(F)(F)F)c2)ccn1[C@H]1CCCC[C@@H]1O (racemic)" value_reported=4.53

Now turn to the next compound.
INPUT: Return pKb measured with Muscarinic acetylcholine receptor M1 (Homo sapiens) given this compound: O=c1cc(-c2ccccc2OCc2ccc(-c3cnn(CC4CCCCC4)c3)cc2)ccn1[C@H]1CCCC[C@@H]1O (racemic)
OUTPUT: 4.52

---

- System name: Muscarinic acetylcholine receptor M1 (Homo sapiens)
- Test name: Allosteric agonist activity at human muscarinic M1 receptor expressed in CHO Flp-In cells assessed as intrinsic activity measured as IP1 accumulation after 1 hr by HTRF method
- Format: functional, cell-based
Please mark Criterion met if the recorded log(IA) is equal to or greater than -0.5, and Criterion not met if it falls below.

Reference set (5 entries):
compound="O=c1cc(-c2ccccc2OCc2ccc(-c3ccccc3)cc2)ccn1[C@H]1CCCC[C@@H]1O (racemic)" group="Criterion met"
compound="CCn1cc(-c2ccc(COc3ccccc3-c3ccn([C@H]4CCCC[C@@H]4O)c(=O)c3)cc2)cn1 (racemic)" group="Criterion met"
compound="O=c1cc(-c2ccccc2OCc2ccc(F)cc2)ccn1[C@H]1CCCC[C@@H]1O (racemic)" group="Criterion met"
compound="O=C(O)c1ccc(COc2ccccc2-c2ccn([C@H]3CCCC[C@@H]3O)c(=O)c2)cc1 (racemic)" group="Criterion not met"
compound="O=C(O)c1cccc(COc2ccccc2-c2ccn([C@H]3CCCC[C@@H]3O)c(=O)c2)c1 (racemic)" group="Criterion not met"

INPUT: Say whether CCCn1cc(-c2ccc(COc3ccccc3-c3ccn([C@H]4CCCC[C@@H]4O)c(=O)c3)cc2)cn1 (racemic) shows log(IA) of -0.5 or more.
OUTPUT: Criterion not met

INPUT: Does log(IA) meet or surpass -0.5 for COC(=O)c1cccc(COc2ccccc2-c2ccn([C@H]3CCCC[C@@H]3O)c(=O)c2)c1 (racemic) ?
OUTPUT: Criterion not met

INPUT: Is reported log(IA) greater than or equal to -0.5 here: O=c1cc(-c2ccccc2OCc2ccc(-c3cnn(C4CCCC4)c3)cc2)ccn1[C@H]1CCCC[C@@H]1O (racemic)
OUTPUT: Criterion met

---

- System name: Muscarinic acetylcholine receptor M1 (Homo sapiens) (UniProt P11229)
- Sequence (P11229 whole entry): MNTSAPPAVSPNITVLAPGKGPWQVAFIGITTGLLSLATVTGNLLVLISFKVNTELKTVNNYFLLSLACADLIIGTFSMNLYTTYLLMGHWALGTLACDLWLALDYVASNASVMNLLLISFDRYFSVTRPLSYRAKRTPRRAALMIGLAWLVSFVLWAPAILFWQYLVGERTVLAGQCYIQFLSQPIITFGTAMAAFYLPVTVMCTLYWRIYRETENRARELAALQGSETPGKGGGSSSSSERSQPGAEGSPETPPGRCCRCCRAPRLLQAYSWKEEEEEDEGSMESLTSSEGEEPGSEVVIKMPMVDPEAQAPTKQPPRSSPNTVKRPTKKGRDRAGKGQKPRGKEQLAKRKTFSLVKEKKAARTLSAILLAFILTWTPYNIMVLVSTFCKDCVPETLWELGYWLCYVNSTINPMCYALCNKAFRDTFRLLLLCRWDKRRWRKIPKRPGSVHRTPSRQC
- Test name: Positive allosteric modulation of human muscarinic M1 receptor expressed in CHO Flp-In cells assessed as functional cooperativity with acetylcholine measured as IP1 accumulation after 1 hr by HTRF method
- Format: cell-based
Classification by log(activity) | ranges: bin 1: < 0.8; bin 2: ≥ 0.8 and < 1; bin 3: ≥ 1

See these solved cases before continuing.
compound="O=c1cc(-c2ccccc2OCc2ccc(-c3cnn(CCO)c3)cc2)ccn1[C@H]1CCCC[C@@H]1O (racemic)" group="bin 3"
compound="CCn1cc(-c2ccc(COc3ccccc3-c3ccn([C@H]4CCCC[C@@H]4O)c(=O)c3)cc2)cn1 (racemic)" group="bin 3"

INPUT: Class label required: CCCCn1cc(-c2ccc(COc3ccccc3-c3ccn([C@H]4CCCC[C@@H]4O)c(=O)c3)cc2)cn1 (racemic)
OUTPUT: bin 1

INPUT: Sort into band: O=c1cc(-c2ccccc2OCc2cccc(F)c2)ccn1[C@H]1CCCC[C@@H]1O (racemic)
OUTPUT: bin 2

INPUT: Sort O=c1cc(-c2ccccc2OCc2cccc(C(F)(F)F)c2)ccn1[C@H]1CCCC[C@@H]1O (racemic) into one of the categories.
OUTPUT: bin 1

INPUT: Categorize the following entry: O=c1cc(-c2ccccc2OCc2ccc(-c3cccnc3)cc2)ccn1[C@H]1CCCC[C@@H]1O (racemic)
OUTPUT: bin 3

INPUT: Input COc1cccc(COc2ccccc2-c2ccn([C@H]3CCCC[C@@H]3O)c(=O)c2)c1 (racemic) ; output its category
OUTPUT: bin 2

INPUT: Using the reported log(activity), which band applies to NC(=O)c1cccc(COc2ccccc2-c2ccn([C@H]3CCCC[C@@H]3O)c(=O)c2)c1 (racemic) ?
OUTPUT: bin 2

INPUT: Looking at Cn1cc(-c2ccc(CNc3ccccc3-c3ccn([C@H]4CCCC[C@@H]4O)c(=O)c3)cc2)cn1 (racemic) , which class would you pick?
OUTPUT: bin 3

INPUT: Given N#Cc1cccc(COc2ccccc2-c2ccn([C@H]3CCCC[C@@H]3O)c(=O)c2)c1 (racemic) , name the class its log(activity) places it in.
OUTPUT: bin 2

INPUT: Lab log: O=c1cc(-c2ccccc2NCc2ccc(-c3cncnc3)cc2)ccn1[C@H]1CCCC[C@@H]1O (racemic) — assign log(activity) category
OUTPUT: bin 1

INPUT: Textbook exercise: identify the category of the compound given here, Cn1cc(-c2ccc(COc3c(F)ccc(F)c3-c3ccn([C@H]4CCCC[C@@H]4O)c(=O)c3)cc2)cn1 (racemic) , according to its measured value.
OUTPUT: bin 1

INPUT: Input O=C(O)c1cccc(COc2ccccc2-c2ccn([C@H]3CCCC[C@@H]3O)c(=O)c2)c1 (racemic) ; output its category
OUTPUT: bin 3

INPUT: Determine which band this compound sits in: COC(=O)c1ccc(COc2ccccc2-c2ccn([C@H]3CCCC[C@@H]3O)c(=O)c2)cc1 (racemic)
OUTPUT: bin 2

INPUT: Class? Entry: O=c1cc(-c2ccccc2OCc2ccc(-c3cnn(CC4CC4)c3)cc2)ccn1[C@H]1CCCC[C@@H]1O (racemic)
OUTPUT: bin 1

---

- System name: Muscarinic acetylcholine receptor M1 (Homo sapiens) (UniProt P11229)
- Test name: Displacement of [3H]NMS from human muscarinic M1 receptor expressed in CHO Flp-In cells after 1 hr by microbeta liquid scintillation counting-based radioligand binding assay
- Assay type: cell-based
Here, each record is paired with measured pKb data.
// print number alone

A selection of reference data follows.
compound="O=c1cc(-c2ccccc2NCc2ccc(-c3cccnc3)cc2)ccn1[C@H]1CCCC[C@@H]1O (racemic)" observed_property=pKb value_reported=4.67
compound="O=c1cc(-c2ccccc2NCc2ccc(Br)cc2)ccn1[C@H]1CCCC[C@@H]1O (racemic)" observed_property=pKb value_reported=4.35
compound="O=c1cc(-c2ccccc2OCc2cccc(F)c2)ccn1[C@H]1CCCC[C@@H]1O (racemic)" observed_property=pKb value_reported=4.38
compound="O=C(O)c1ccc(COc2ccccc2-c2ccn([C@H]3CCCC[C@@H]3O)c(=O)c2)cc1 (racemic)" observed_property=pKb value_reported=3.88

INPUT: Which measured pKb value corresponds to O=c1cc(-c2ccccc2OCc2ccc(C(F)(F)F)cc2)ccn1[C@H]1CCCC[C@@H]1O (racemic) ?
OUTPUT: 4.44

INPUT: Record request: pKb value, item Cn1cc(-c2ccc(COc3ccccc3-c3ccn([C@H]4CCCC[C@@H]4O)c(=O)c3)cn2)cn1 (racemic)
OUTPUT: 4.5

INPUT: Return reported pKb; argument: COC(=O)c1cccc(COc2ccccc2-c2ccn([C@H]3CCCC[C@@H]3O)c(=O)c2)c1 (racemic)
OUTPUT: 3.99

INPUT: // returns reported pKb for input O=c1cc(-c2ccccc2OCc2ccc(-c3ccccc3)cc2)ccn1[C@H]1CCCC[C@@H]1O (racemic)
OUTPUT: 4.99
